Collected MIC values appear next to each entry.
- Test system: Bacillus cereus
- method.notes: Antibacterial activity against Bacillus cereus ACCC 11077 after 24 hrs by serial dilution technique
- Type: functional
- condition.description: ACCC 11077, 24 h
Give just the numeric value; µM need not be written.

| mol.smiles | endpoint.result |
| --- | --- |
| COc1cc(O)c2c(c1O)[C@H](O)[C@H]1C[C@](C)(O)[C@H](O)C[C@@H]1C2=O | 12.5 |

Looking up COC1=CC(=O)c2cc3c(c(O)c2C1=O)C[C@](C)(O)[C@H](O)[C@H]3O , I see its MIC listed as 10

Briefly, MIC measured for COc1cc(OC(C)=O)c2c(c1OC(C)=O)C(=O)c1cc(C)c(O)cc1C2=O : 37.5

Just so you know, measured MIC for COC1=CC(=O)c2c(cc3c(c2O)C[C@@H](O)[C@@](C)(O)C3)C1=O came out at 0.312

Consider COc1cc(OC(C)=O)c2c(c1OC(C)=O)C(=O)c1cc(C)c(OC(C)=O)cc1C2=O . Its measured MIC is 140

Lab note: COc1cc(O)c2c(c1O)C(=O)C1=C(C[C@@H](O)[C@@](C)(O)C1)C2=O gave MIC of 3.12

* * *

// values below are reported MIC
- Test system: Bacillus cereus
- method.notes: Antibacterial activity against Bacillus cereus ACCC 11077 after 24 hrs by serial dilution technique
- Type: functional
- condition.description: ACCC 11077, 24 h
Report as a plain number; the unit µM is understood.

| mol.smiles | endpoint.result |
| --- | --- |
| COC1=CC(=O)c2c(O)c3c(c(O)c2C1=O)C[C@](C)(O)[C@H](OC(C)=O)[C@H]3O | 3.12 |

Proceed to the following item.
What the record says about COC1=CC(=O)c2c(O)c3c(c(O)c2C1=O)C[C@](C)(O)[C@H](OC(C)=O)C3 : MIC is 0.0488

* * *

MIC values for the molecules below.
- Tested on: Staphylococcus aureus
- method.notes: Antibacterial activity against Staphylococcus aureus ATCC 27154 after 24 hrs by serial dilution technique
- Assay type: functional
- condition.description: ATCC 27154, 24 h
Kindly answer with a numeric value in µM, unit omitted.

| mol.smiles | MIC (µM) |
| --- | --- |
| COc1cc(O)c2c(c1OC(C)=O)C(=O)c1cc(C)c(O)cc1C2=O | 100 |
| COC1=CC(=O)c2cc3c(c(O)c2C1=O)C[C@](C)(O)[C@H](O)[C@H]3O | 2.5 |
| COc1cc(O)c2c(c1O)[C@H](O)[C@H]1C[C@](C)(O)[C@H](O)C[C@@H]1C2=O | 25 |
| COc1cc(O)c2c(c1O)C(=O)C1=C(C[C@@H](O)[C@@](C)(O)C1)C2=O | 3.12 |

Proceeding to the next molecule to report its MIC.
Recorded MIC (molecule COC1=CC(=O)c2c(O)c3c(c(O)c2C1=O)C[C@](C)(O)[C@H](O)[C@H]3O ): 1.56

* * *

Catalogue of compounds with associated pIC50
- System: A549
- method.notes: Cytotoxicity against human A549 cells by MTT assay
- Assay type: functional, cell-based
Please treat pIC50 as minus the base-10 logarithm of the molar concentration.

Some solved cases for reference:
| compound | pIC50 |
| --- | --- |
| CO[C@@]12[C@H](COC(N)=O)C3=C(C(=O)C(C)=C(N)C3=O)N1C[C@@H]1N[C@@H]12 [MITOMYCIN] | 5.52 |
| COC1=CC(=O)c2c(O)c3c(c(O)c2C1=O)C[C@](C)(O)[C@H](OC(C)=O)C3 | 5.28 |
| COC1=CC(=O)c2c(O)c3c(c(O)c2C1=O)C[C@](C)(O)[C@H](OC(C)=O)[C@H]3O | 5.57 |
| COC1=CC(=O)c2c(cc3c(c2O)C[C@@H](O)[C@@](C)(O)C3)C1=O [NIGROSPORIN B] | 5.48 |

# pIC50 (compound: COC1=CC(=O)c2cc3c(c(O)c2C1=O)C[C@](C)(O)[C@H](O)[C@H]3O ) is 5.34

Note to self: pIC50 recorded for COc1cc(O)c2c(c1O)[C@H](O)[C@H]1C[C@](C)(O)[C@H](O)[C@@H](O)[C@@H]1C2=O [9ALPHA-HYDROXYHALOROSELLINIA A] was 4.38

* * *

- Test system: Bacillus cereus
- method.notes: Antibacterial activity against Bacillus cereus ACCC 11077 after 24 hrs by serial dilution technique
- Format: functional
- condition.description: ACCC 11077, 24 h
attribute.measured: MIC (µM)
Report as a plain number; the unit µM is understood.

A selection of reference data follows.
| compound | endpoint.result |
| --- | --- |
| COc1cc(O)c2c(c1O)C(=O)c1cc(C)c(OC(C)=O)cc1C2=O | 50 |
| COC1=CC(=O)c2c(O)c3c(c(O)c2C1=O)C[C@](C)(O)[C@H](O)[C@H]3O | 3.12 |
| O=C(O)c1cn(C2CC2)c2cc(N3CCNCC3)c(F)cc2c1=O | 1.25 |
| COc1cc(O)c2c(c1O)[C@H](O)[C@H]1C[C@](C)(O)[C@H](O)[C@@H](O)[C@@H]1C2=O [9ALPHA-HYDROXYHALOROSELLINIA A] | 12.5 |

Would you kindly look at the next entry?
Tested on Bacillus cereus, the item COc1cc(O)c2c(c1O)[C@H](OC)[C@H]1C[C@](C)(O)[C@H](O)C[C@H]1C2=O showed MIC equal to 50

* * *

Parameter: MIC. Scope: all listed entries.
- System: Micrococcus luteus
- method.notes: Antibacterial activity against Micrococcus luteus ATCC 49732 after 24 hrs by serial dilution technique
- Assay type: functional
- condition.description: ATCC 49732, 24 h
Give just the numeric value; µM need not be written.

Some entries whose results are on file:
| mol.smiles | tested.target | value.units | MIC |
| --- | --- | --- | --- |
| COc1cc(O)c2c(c1O)C(=O)C1=C(C[C@@H](O)[C@@](C)(O)C1)C2=O | Micrococcus luteus | µM | 200 |
| COC1=CC(=O)c2cc3c(c(O)c2C1=O)C[C@](C)(O)[C@H](O)[C@H]3O | Micrococcus luteus | µM | 20 |

Summary: COc1cc(O)c2c(c1O)[C@H](O)[C@H]1C[C@](C)(O)[C@H](O)C[C@@H]1C2=O , Micrococcus luteus, MIC = 25

GET /values?item= COc1cc(O)c2c(c1OC(C)=O)C(=O)c1cc(C)c(OC(C)=O)cc1C2=O &system= Micrococcus luteus returns MIC: 200

The reported Micrococcus luteus MIC of O=C(O)c1cn(C2CC2)c2cc(N3CCNCC3)c(F)cc2c1=O is 2.5

// MIC (Micrococcus luteus) for COC1=CC(=O)c2c(O)c3c(c(O)c2C1=O)C[C@](C)(O)[C@H](O)[C@H]3O = 100

Form: item COc1cc(OC(C)=O)c2c(c1OC(C)=O)C(=O)c1cc(C)c(OC(C)=O)cc1C2=O ; test system Micrococcus luteus; MIC: 140

Entry COC1=CC(=O)c2c(cc3c(c2O)C[C@@H](O)[C@@](C)(O)C3)C1=O : MIC on Micrococcus luteus = 10

Given the compound COC1=CC(=O)c2c(O)c3c(c(O)c2C1=O)C[C@](C)(O)[C@H](OC(C)=O)C3 and test system Micrococcus luteus, the measured MIC is 100

* * *

- Test system: Staphylococcus aureus
- method.notes: Antibacterial activity against Staphylococcus aureus ATCC 27154 after 24 hrs by serial dilution technique
- Format: functional
- condition.description: ATCC 27154, 24 h
Catalogue of compounds with associated MIC
Express it in µM; write the number only.

| compound | MIC [µM] |
| --- | --- |
| COc1cc(O)c2c(c1O)[C@H](O)[C@H]1C[C@](C)(O)[C@H](O)[C@@H](O)[C@@H]1C2=O [9ALPHA-HYDROXYHALOROSELLINIA A] | 0.78 |

Briefly, MIC measured for COc1cc(O)c2c(c1O)[C@H](OC)[C@H]1C[C@](C)(O)[C@H](O)C[C@H]1C2=O : 1.56

For O=C(O)c1cn(C2CC2)c2cc(N3CCNCC3)c(F)cc2c1=O [CIPROFLOXACIN] the compound record lists MIC as 0.156

Documented MIC of COC1=CC(=O)c2c(cc3c(c2O)C[C@@H](O)[C@@](C)(O)C3)C1=O [NIGROSPORIN B] : 1.25

* * *

- Tested on: Bacillus cereus
- method.notes: Antibacterial activity against Bacillus cereus ACCC 11077 after 24 hrs by serial dilution technique
- Format: functional
- condition.description: ACCC 11077, 24 h
attribute.measured: MIC

| molecule | endpoint.result |
| --- | --- |
| COc1cc(O)c2c(c1O)C(=O)c1cc(C)ccc1C2=O [AUSTROCORTIRUBIN] | > 200 µM |
| COc1cc(OC(C)=O)c2c(c1O)C(=O)c1cc(C)c(O)cc1C2=O | > 200 µM |

// switching to the query molecule
// COc1cc(O)c2c(c1OC(C)=O)C(=O)c1cc(C)c(O)cc1C2=O : MIC value = > 200 µM

This collection of values is drawn from ChEMBL document CHEMBL2046419.
